target: human alpha4beta7 (human, UniProt P13612 34-1032; P26010 20-798); assay: cell-based or functional assay
Sequence (P13612 34-1032, chain 1 of 2): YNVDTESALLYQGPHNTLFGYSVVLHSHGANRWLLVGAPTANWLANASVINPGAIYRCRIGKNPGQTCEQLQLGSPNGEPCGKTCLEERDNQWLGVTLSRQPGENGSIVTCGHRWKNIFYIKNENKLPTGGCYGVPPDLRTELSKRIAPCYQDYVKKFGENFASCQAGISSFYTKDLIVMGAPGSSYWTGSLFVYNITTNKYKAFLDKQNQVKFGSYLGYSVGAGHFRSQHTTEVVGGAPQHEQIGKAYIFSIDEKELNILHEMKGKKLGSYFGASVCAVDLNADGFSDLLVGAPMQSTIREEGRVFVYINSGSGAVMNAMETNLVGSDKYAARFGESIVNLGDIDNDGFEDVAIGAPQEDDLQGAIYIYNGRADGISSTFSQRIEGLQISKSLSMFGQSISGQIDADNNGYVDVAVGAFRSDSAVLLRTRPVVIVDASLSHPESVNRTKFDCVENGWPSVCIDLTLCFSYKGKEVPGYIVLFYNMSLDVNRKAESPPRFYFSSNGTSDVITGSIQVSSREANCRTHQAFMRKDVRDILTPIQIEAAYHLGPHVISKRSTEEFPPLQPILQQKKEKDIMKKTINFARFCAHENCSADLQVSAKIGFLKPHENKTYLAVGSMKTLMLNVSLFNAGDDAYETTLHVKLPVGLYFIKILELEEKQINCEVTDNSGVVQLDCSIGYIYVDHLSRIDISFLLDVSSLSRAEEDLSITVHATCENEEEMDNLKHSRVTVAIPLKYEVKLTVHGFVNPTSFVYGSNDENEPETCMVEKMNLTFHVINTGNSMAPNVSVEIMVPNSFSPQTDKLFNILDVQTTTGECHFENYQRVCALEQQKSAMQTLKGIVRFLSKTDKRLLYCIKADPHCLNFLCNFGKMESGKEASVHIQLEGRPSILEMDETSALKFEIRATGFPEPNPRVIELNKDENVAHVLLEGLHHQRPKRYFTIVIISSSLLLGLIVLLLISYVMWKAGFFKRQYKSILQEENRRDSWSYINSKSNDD
Sequence (P26010 20-798, chain 2 of 2): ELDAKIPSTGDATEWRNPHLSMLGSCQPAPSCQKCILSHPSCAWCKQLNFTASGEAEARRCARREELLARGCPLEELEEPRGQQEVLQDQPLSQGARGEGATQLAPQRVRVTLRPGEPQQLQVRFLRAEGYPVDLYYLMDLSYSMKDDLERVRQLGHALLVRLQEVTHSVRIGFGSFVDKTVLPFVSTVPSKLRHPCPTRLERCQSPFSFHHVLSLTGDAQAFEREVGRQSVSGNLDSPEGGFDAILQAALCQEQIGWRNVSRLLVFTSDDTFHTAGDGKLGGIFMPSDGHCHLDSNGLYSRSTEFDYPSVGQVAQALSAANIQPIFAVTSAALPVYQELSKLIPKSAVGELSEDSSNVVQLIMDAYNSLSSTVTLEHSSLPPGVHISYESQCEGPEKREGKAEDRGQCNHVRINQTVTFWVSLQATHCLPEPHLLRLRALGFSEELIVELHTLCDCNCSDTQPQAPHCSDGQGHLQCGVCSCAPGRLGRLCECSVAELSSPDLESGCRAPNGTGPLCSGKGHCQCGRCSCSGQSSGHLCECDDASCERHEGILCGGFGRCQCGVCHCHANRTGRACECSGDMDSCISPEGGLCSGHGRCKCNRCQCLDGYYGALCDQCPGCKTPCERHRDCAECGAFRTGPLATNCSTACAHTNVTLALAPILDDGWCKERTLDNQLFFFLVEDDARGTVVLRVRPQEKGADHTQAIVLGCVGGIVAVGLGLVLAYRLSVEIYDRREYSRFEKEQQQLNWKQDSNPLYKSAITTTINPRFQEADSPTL
quantity: HUT78 Adhesion IC50 (µg/mL)
Answers are plain numbers, in µg/mL.

Study these solved cases before continuing.
2F12 (antibody, V domains shown, Fully human monoclonal from XenoMouse (human IgG2 or IgG4); kappa light chain; also called 2F12K; 2F12H) VH: QVQLVQSGAEVKKPGASVKVSCKVSGYTVTDLSMHWVRQAPGKGLEWMGGFDPQDGETIYAQKFQGRVTMTEDTSTDTAYMELRSLRSEDTAVYYCTTESSSAWFDPWGQGTLVTVSS VL: DIQMTQSPSSVFASVGDRVTITCRASQGISSWLAWYQQKPGKAPNLLIYGASSLQNGVPLRFSGSGSGTDFTLTISSLQPEDFATYYCQQANSFPWTFGQGTKVEIK	0.0114
18A11 (antibody, V domains shown, Fully human monoclonal from XenoMouse (human IgG2 or IgG4); kappa light chain; also called 18A11K; 18A11H) VH: QVQLVQSGAEVKKPGASVKVSCKVSGYTLSDLSIHWVRQAPGKGLEWMGGFDPQDGETIYAQKFQGRVTMTEDTSTDTAYMELSSLKSEDTAVYYCATGSSSSWFDPWGQGTLVTVSS VL: DIQMTQSPSSVSASVGDRVTITCRASQGISSWLAWYQQKPGKAPKLLIYGASNLESGVPSRFSGSGSGTDFTLTISSLQPEDFANYYCQQANSFPWTFGQGTKVEIK	0.0074

**Query** Name the recorded HUT78 Adhesion IC50 for 25C9 (antibody, V domains shown, Fully human monoclonal from XenoMouse (human IgG2 or IgG4); kappa light chain; also called 25C9k; 25C9K) VH: QVQLVESGGGLVKPGGSLRLSCAASGFTFNDYYMSWIRQAPGKGLEWVSYISSSGSAIHYADSVKGRFTISRDNAKNSLYLQMNSLRAEDTAVYYCAREYSSGWAYFDYWGQGTLVTVSS VL: DIQMTQSPSSVSASVGDRVTITCRASQDISSWLAWYQRKPGKAPKVLIYSASSLQSGVPSRFSGSGSGTDFTLTISSLQPEDFATYYCQQADSFPWTFGQGTKVEIK .
**Result** 0.0137
